Listing of recorded GI50 by entry.
Tested on: EKVX
Assay: NCI tumour cell line growth inhibition, 48 h
Calls of active or inactive are those of the source. Rule as the data show it: active = GI50 up to about 1.1 µM and inactive = higher.

Study these solved cases before continuing.
[
  {
    "SMILES STR": "CCCN(CCC)C(=S)N/N=C(/C)c1ccccc1O",
    "GI50": "6.31 µM (inactive)"
  },
  {
    "SMILES STR": "C=C(Br)CN(CC(=C)Br)C(C)=O",
    "GI50": "> 100 µM (inactive)"
  },
  {
    "SMILES STR": "O=C(OCC12CC3CC(CC(C3)C1)C2)c1ccc(NCc2cc(O)ccc2O)cc1",
    "GI50": "2.7 µM (inactive)"
  },
  {
    "SMILES STR": "CC(C)=C[C@@H]1C[C@H](C)[C@H]2CC[C@H](C)[C@H]3C(=O)C(O)=C(C)C(=O)[C@]123",
    "GI50": "> 100 µM (inactive)"
  }
]

Next:
input: For the compound "CS/C=C\C(=O)O[C@H]1C[C@@H]2[C@@H](O)c3occ(C)c3C[C@]2(C)[C@@H](C)C1" , give its measured GI50 value.
output: 37.5 µM (inactive)

* * *

Listing of recorded GI50 by entry.
Test system: DU-145
Assay: NCI tumour cell line growth inhibition, 48 h
Active and inactive are the calls of the source. No stated cut-off is given here; in the data, active = GI50 up to about 1.1 µM and inactive = higher.

input: // output GI50; input CN(C)/C=N/CC(O)c1ccccc1 (configuration not stated) ; system DU-145
output: > 100 µM (inactive)

input: // output GI50; input "O=C(/C=C/c1ccccc1)Oc1cccc(O)c1" ; system DU-145
output: 80.7 µM (inactive)

input: // output GI50; input "Cc1c(S(=O)(=O)/N=C(\NN)Nc2ccc(Cl)cc2)sc2ccc(Cl)cc12" ; system DU-145
output: 16.9 µM (inactive)

input: // output GI50; input CC1=NN(C(=O)CC(=O)Nc2cccc(C)c2)C(=O)C1/N=N/c1ccc(S(=O)(=O)CCOS(=O)(=O)O)cc1 (configuration not stated) ; system DU-145
output: 32.3 µM (inactive)

input: // output GI50; input "O=C1NC(=S)N/C1=C\c1cccs1" ; system DU-145
output: > 100 µM (inactive)

input: // output GI50; input "COc1ccc2cc(CNCCCCCCNCc3ccc4cc(OC)ccc4c3)ccc2c1" ; system DU-145
output: 1.58 µM (inactive)

* * *

Tested on: SN12C
Experiment: NCI tumour cell line growth inhibition, 48 h
Active and inactive are the calls of the source. No stated cut-off is given here; in the data, active = GI50 up to about 1.1 µM and inactive = higher.
Classes to choose from: active, inactive

[
  {
    "COMPOUND": "CCC(C)C1NC(=O)C(NC(=O)C(CC(C)C)N(C)C(=O)[C@@H]2CC(O)CN2C(=O)[C@H](C)O)C(C)OC(=O)[C@H](Cc2ccc(OC)cc2)N(C)C(=O)[C@@H]2CCCN2C(=O)[C@H](CC(C)C)NC(=O)C(C)C(=O)[C@H](C(C)C)OC(=O)CC1O (stereo partly specified)",
    "DISCRETE LABEL": "active"
  },
  {
    "COMPOUND": "COC1(OC)C(N(C)C)=C(Cl)C(=O)/C1=C/C=O",
    "DISCRETE LABEL": "inactive"
  },
  {
    "COMPOUND": "CCCN(CCCN)/[N+]([O-])=N\\O",
    "DISCRETE LABEL": "inactive"
  },
  {
    "COMPOUND": "COc1ccc(/C=c2/s/c(=C(\\C#N)c3nc4ccccc4[nH]3)n(-c3ccccc3)c2=O)cc1",
    "DISCRETE LABEL": "inactive"
  },
  {
    "COMPOUND": "NC(CCCC(N)P(=O)(O)c1ccccc1)P(=O)(O)c1ccccc1 (stereo unspecified)",
    "DISCRETE LABEL": "inactive"
  }
]

Proceed to the following item.
input: Identify the outcome logged in this assay for the compound shown: "CN(C)c1ccc(/C=C/c2ccnc3ccc4ccccc4c23)cc1"
output: inactive
